Biological target: Pantothenate synthetase (Mycobacterium tuberculosis (strain ATCC 25618 / H37Rv))
Test: Coupled enzyme confirmation of inhibitors against recombinant Mtb PanC (AID 375);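 note: 0% = full reaction with vehicle and 100% = no enzyme background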
Conditions: coupled enzyme assay; at 10 µM, active compounds read high
assay_readout: inhibition (%)
Numeric answer only, unit % assumed.

Consider the worked cases shown below.
# compound, test_system, assay_readout, units_symbol, result
measured = [
    ("Cc1ccc2cc(C(c3nnnn3CC3CCCO3)N3CCCC4(CCCCC4)C3)c(=O)[nH]c2c1 (stereo not drawn)", "Pantothenate synthetase (Mycobacterium tuberculosis (strain ATCC 25618 / H37Rv))", "inhibition", "%", 0),
    ("C=CCn1c(SCn2nnc3ccccc3c2=O)nnc1-c1ccc(Br)cc1", "Pantothenate synthetase (Mycobacterium tuberculosis (strain ATCC 25618 / H37Rv))", "inhibition", "%", 2),
    ("CN1CCCN=C1COC(=O)C(O)(c1ccccc1)C1CCCCC1 (stereo not drawn)", "Pantothenate synthetase (Mycobacterium tuberculosis (strain ATCC 25618 / H37Rv))", "inhibition", "%", 0),
    ("CCOc1ccc(OCC)c(NS(=O)(=O)c2ccc3c(c2)n(C)c(=O)c(=O)n3C)c1", "Pantothenate synthetase (Mycobacterium tuberculosis (strain ATCC 25618 / H37Rv))", "inhibition", "%", 3),
    ("CSc1oc(-c2ccccc2)nc1S(=O)(=O)c1ccc(F)cc1", "Pantothenate synthetase (Mycobacterium tuberculosis (strain ATCC 25618 / H37Rv))", "inhibition", "%", 0),
]

## Input Would you kindly share the measured inhibition for FC(F)(F)c1cc(-c2ccco2)nc(N2CCOCC2)n1 ?
## Output 2

## Input Would you kindly share the measured inhibition for COc1ccc(Cn2c(=O)[nH]c3cc(C(=O)NCCCN4CCCC4)ccc3c2=O)cc1 ?
## Output 5

## Input Would you kindly share the measured inhibition for Cc1cn(C2CC3OCC3O2)c(=O)[nH]c1=O (stereo not drawn) ?
## Output 0

## Input Would you kindly share the measured inhibition for Cc1ccc(C2C3CN(C(C)C)CC=C3C(C#N)=C(N)C2(C#N)C#N)cc1 (stereo not drawn) ?
## Output 0

## Input Would you kindly share the measured inhibition for CCCCCn1c(N2CCN(Cc3ccccc3)CC2)nc2c1c(=O)[nH]c(=O)n2C ?
## Output 6

## Input Would you kindly share the measured inhibition for COc1ccc(Cc2nnc(NC(=O)Cc3cccs3)s2)cc1 ?
## Output 0

## Input Would you kindly share the measured inhibition for c1cc(C(c2nnnn2C2CCCC2)N2CCOCC2)ccn1 (stereo not drawn) ?
## Output 4

## Input Would you kindly share the measured inhibition for O=C(CCSc1nc(-c2ccco2)cc(C(F)(F)F)n1)NCCc1ccccc1 ?
## Output 1

## Input Would you kindly share the measured inhibition for CC1=C(C(=O)OC2CCCCC2)C(c2cccnc2)n2ncnc2N1 (stereo not drawn) ?
## Output 0

## Input Would you kindly share the measured inhibition for O=C(OCCCN1CCCC1)C1(c2ccccc2)CCCC1 ?
## Output 1

## Input Would you kindly share the measured inhibition for CCCCCCOC(=O)C(C#N)c1nc2ccccc2nc1N1CCCCC1 (stereo not drawn) ?
## Output 0

## Input Would you kindly share the measured inhibition for CCSC1=C(C#N)C(c2cccc(OC)c2)CC(=O)N1 (stereo not drawn) ?
## Output 6

* * *

Target: Pantothenate synthetase (Mycobacterium tuberculosis (strain ATCC 25618 / H37Rv)) (UniProt P9WIL5)
Sequence (P9WIL5 whole entry, looked up): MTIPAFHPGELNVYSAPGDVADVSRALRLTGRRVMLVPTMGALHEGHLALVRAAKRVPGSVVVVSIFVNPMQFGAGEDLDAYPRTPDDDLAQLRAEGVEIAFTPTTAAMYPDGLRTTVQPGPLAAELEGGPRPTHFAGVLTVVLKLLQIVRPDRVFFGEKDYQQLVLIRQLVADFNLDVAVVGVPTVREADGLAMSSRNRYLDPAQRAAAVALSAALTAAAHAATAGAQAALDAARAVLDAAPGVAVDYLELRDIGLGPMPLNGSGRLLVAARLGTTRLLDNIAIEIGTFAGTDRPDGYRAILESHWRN
Test: Coupled enzyme confirmation of inhibitors against recombinant Mtb PanC (AID 375);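 note: 0% = full reaction with vehicle and 100% = no enzyme background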
Details: coupled enzyme assay; at 10 µM, active compounds read high
assay_readout: inhibition (%)
Numeric answer only, unit % assumed.

## Input Would you kindly share the measured inhibition for CC(C)[N+](C)(CCOC(=O)C1c2ccccc2Oc2ccccc21)C(C)C ?
## Output 0

## Input Would you kindly share the measured inhibition for Cc1cc(-c2ccccc2)c(C#N)c(N)n1 ?
## Output 1

## Input Would you kindly share the measured inhibition for CCOc1ccc(OCCCCN(C)C)cc1 ?
## Output 2

## Input Would you kindly share the measured inhibition for O=C(CSCc1n[nH]c(=O)[nH]1)NCCOc1cccc(Oc2ccccc2)c1 ?
## Output 1

## Input Would you kindly share the measured inhibition for CC(=O)Nc1c(O)n(C)c2ccccc12 ?
## Output 2

## Input Would you kindly share the measured inhibition for CCOc1ccccc1NC(=O)NC1CCN(CC(=O)Nc2ccc3c(c2)OCCO3)CC1 ?
## Output 0

## Input Would you kindly share the measured inhibition for CCOC(=O)C1=C(c2ccccc2)N2CCS(=O)(=O)N=C2S1 ?
## Output 0

## Input Would you kindly share the measured inhibition for O=C(CN1C(=O)CCS(=O)(=O)c2ccccc21)Nc1cccc(F)c1 ?
## Output 5

## Input Would you kindly share the measured inhibition for Cc1cc(NC(=O)C2=C(O)c3ccccc3S(=O)(=O)N2C)no1 ?
## Output 0

## Input Would you kindly share the measured inhibition for CC(OC(=O)c1ccco1)C(=O)NCc1cccs1 (stereo unspecified) ?
## Output 0

## Input Would you kindly share the measured inhibition for CCOc1cc(C(=O)Nc2c3c(nn2C(C)(C)C)CS(=O)C3)cc(OCC)c1OCC (stereo unspecified) ?
## Output 4

## Input Would you kindly share the measured inhibition for O=C(O)c1ccc(-c2ccc(O)c(F)c2)cc1 ?
## Output 1

## Input Would you kindly share the measured inhibition for CSc1nc(=NC(C)=O)ss1 ?
## Output 0

## Input Would you kindly share the measured inhibition for Cc1onc(-c2ccccc2Cl)c1C(=O)Nc1cccc(-c2cn3cccnc3n2)c1 ?
## Output 7

## Input Would you kindly share the measured inhibition for Cc1ccc(CS(=O)(=O)Cc2ccc(C(=O)NCc3ccccn3)o2)cc1 ?
## Output 0

## Input Would you kindly share the measured inhibition for CCN1CCN(C(=O)c2cn(CC)c3ccc(S(=O)(=O)N(C)C)cc3c2=O)CC1 ?
## Output 0

## Input Would you kindly share the measured inhibition for CCOC(=O)C1=C(C)NC(=O)NC1c1ccc(Br)s1 (stereo unspecified) ?
## Output 1

## Input Would you kindly share the measured inhibition for CCCN1C=CC(=C2C(=O)c3ccccc3C2=O)C=C1 ?
## Output 0

## Input Would you kindly share the measured inhibition for Cc1n[nH]c(C)c1S(=O)(=O)N1CCN(c2ccccn2)CC1 ?
## Output 2

## Input Would you kindly share the measured inhibition for CCOC(=O)c1[nH]c2ccccc2c1NC(=O)CCN1CCN(C(=O)OCC)CC1 ?
## Output 0

## Input Would you kindly share the measured inhibition for O=C(Nc1nnc(N2CCCCCC2)s1)c1cc(-c2ccc(Br)cc2)on1 ?
## Output 12
